Origin of the recorded values: paper PMC11151938

- ASSAY SYSTEM: UniProt Q9Y572
- Sequence (Q9Y572 1-313): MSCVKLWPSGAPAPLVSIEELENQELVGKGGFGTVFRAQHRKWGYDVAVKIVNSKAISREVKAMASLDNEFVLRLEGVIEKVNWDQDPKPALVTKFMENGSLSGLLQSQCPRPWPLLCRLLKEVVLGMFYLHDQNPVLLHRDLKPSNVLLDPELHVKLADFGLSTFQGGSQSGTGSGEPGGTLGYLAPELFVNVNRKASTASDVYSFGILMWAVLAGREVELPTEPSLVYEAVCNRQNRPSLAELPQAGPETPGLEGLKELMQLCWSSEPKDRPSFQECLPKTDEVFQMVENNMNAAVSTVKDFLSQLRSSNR
- ASSAY DETAILS: In vitro RIPK3 kinase assay
- Format: biochemical
ENDPOINT LABEL: IC50 (nM)
Field format: number, assumed nM, no unit text.

Q: For `CCN(CC)CCOc1ccc(Nc2ncc3cc(-c4c(Cl)cccc4Cl)c(=O)n(C)c3n2)cc1` , what is its reported IC50?
Result: 1080
